# Tested on: RPMI-8226 leukemia
# testDescription: NCI-60 one-dose screen, 48 h (100 = growth as untreated, 0 = no growth, -100 = all killed)
# conditionNotes: 10 µM
About 83,000 compounds went through this panel and 20% of them were active in at least one assay; those are over-represented in the sample as a whole.
Provide the reported growth of each item.
Report the figure in % without appending any unit label.

Give the observed growth of Cc1c(C(=O)N[C@H](CO)Cc2ccccc2)[nH]c2ccc(Cl)cc2c1=O for RPMI-8226 leukemia.
92.3

Give the observed growth of Fc1ccc2[nH]c3c(NCCCN4CCOCC4)ncnc3c2c1 for RPMI-8226 leukemia.
46.4

Give the observed growth of CCOC(=O)CNC(=O)Nc1ccc(Oc2ccc(NC(=O)NCC(=O)OCC)cc2)cc1 for RPMI-8226 leukemia.
99.9

Give the observed growth of C#CCn1c(-c2cccc(OCCCCl)c2)nc2c1c(=O)n(C)c(=O)n2C for RPMI-8226 leukemia.
10.5

Give the observed growth of O=C1NN(c2ccccc2)C(c2cccnc2)=N/C1=C\c1cccnc1 for RPMI-8226 leukemia.
83.3

Give the observed growth of NC(=O)c1ccc(Br)o1 for RPMI-8226 leukemia.
112

Give the observed growth of COc1ccc(-c2nc(-c3ccccc3)c(-c3ccccc3)[nH]2)cc1OC1CCCC1 for RPMI-8226 leukemia.
56.6

Give the observed growth of CC(=O)Oc1ccc(C2=Cc3ccc(OC(C)=O)cc3OC2C)cc1 (stereo not drawn) for RPMI-8226 leukemia.
19.5

Give the observed growth of CCOC(=O)c1sc(NC(=O)c2cc(OC)c(OC)c(OC)c2)nc1C for RPMI-8226 leukemia.
83

Give the observed growth of Cc1ccc2nc3[nH]c(=O)[nH]c(=O)c3c(N)c2c1 for RPMI-8226 leukemia.
89.8

Give the observed growth of FC(F)(F)c1ccc(-c2cnc(Cl)nc2NC2CCCCCC2)cc1 for RPMI-8226 leukemia.
-4.84

Give the observed growth of C#CCNCCN1C(=O)c2ccc3c4c(ccc(c24)C1=O)C(=O)N(CCNCC#C)C3=O for RPMI-8226 leukemia.
45.3

Give the observed growth of COc1cc(C(c2c[nH]c3ccccc23)N2CCCC2)ccc1OCc1ccccc1 (stereo not drawn) for RPMI-8226 leukemia.
32.3

Give the observed growth of CCc1ccc(Nc2cc(C)nc3nc(C)nn23)cc1 for RPMI-8226 leukemia.
-35.2

Give the observed growth of COc1ccc(S(=O)(=O)Nc2ccc(OCc3nnc(-c4ccc(Cl)cc4)o3)c(F)c2)cc1 for RPMI-8226 leukemia.
31.6

Give the observed growth of C/C=C\COc1cc(C)c(Cl)cc1Cl for RPMI-8226 leukemia.
99.7

Give the observed growth of CC(C)OCc1cc(CN2CCN(c3cccc(Cl)c3)CC2)c(O)c2ncccc12 for RPMI-8226 leukemia.
-25

Give the observed growth of CS(=O)(=O)Nc1ccc(OCc2nnc(-c3ccc(Cl)cc3)o2)c(F)c1 for RPMI-8226 leukemia.
87.9

Give the observed growth of CC1(CO)CCCC12OCCO2 (stereo not drawn) for RPMI-8226 leukemia.
100

Give the observed growth of C[C@@H]1N=C(c2ccc(Br)cc2)Nc2nc3ccccn3c2C1=O for RPMI-8226 leukemia.
94

Give the observed growth of Fc1cc(-c2ncc(-c3cc(F)c(F)c(F)c3)c(NC3CCCCCC3)n2)cc(F)c1F for RPMI-8226 leukemia.
96.3

Give the observed growth of COc1ccc(OC)c([N+](=O)[O-])c1C=O for RPMI-8226 leukemia.
75.1

Give the observed growth of Cc1cc2cc3c(=O)[nH]c(=O)cc-3n(CC(O)C(O)C(O)CO)c2cc1C (stereo not drawn) for RPMI-8226 leukemia.
106
